target: human recombinant COX2 (hCOX2); assay: LCMS-based COX2 enzymatic inhibition assay (PGE2 quantification); format: biochemical; set-up: COX2 2 minutes pge2/pge2d4 area ratio Avg; other: 2 minutes; readout pge2/pge2d4 area ratio; average; COX2 2 minutes pge2/pge2d4 area ratio Avg; LLE; average LLE; COX2 2 minutes pge2 area (counts) Avg; readout pge2 area (counts); other: 2 min; "ovine COX2 (oCOX2), human recombinant COX2 (hCOX2)"; conditions: 2 minutes; readout pge2/pge2d4 area ratio; average; read-out: COX2 2 minutes pge2/pge2d4 area ratio Avg. IC50
reported.endpoint: IC50 (nM)
Respond numerically; units are nM and should not be typed.

input: Quick one: give measured IC50 for CS(=O)(=O)c1ccc(-c2nc(NCc3cccs3)cnc2N)cc1
output: 67.1

input: Quickly give me recorded IC50 for COCc1ccc(NCc2cccs2)nc1-c1ccc(S(C)(=O)=O)cc1
output: 83.9

input: Dear colleague, please send me the reported IC50 for CS(=O)(=O)c1ccc(-c2cccc(OCc3ccoc3)n2)cc1 when you can.
output: 9.12

input: Give reported IC50 value for CS(=O)(=O)c1ccc(-c2cnnc(NCc3cccs3)c2)cc1
output: 2450

input: Input CS(=O)(=O)c1ccc(-c2nc(OCc3cccs3)cc3ncccc23)cc1 , output reported IC50.
output: 212
